target: UniProt P45452; assay: Inhibition of human matrix metalloprotease-13 at 20 nM
EXPERIMENTAL READOUT: Inhibition effect

| SMILES NOTATION | Inhibition effect |
| --- | --- |
| CC(C)[C@H](NS(=O)(=O)c1ccc(-c2ccc([N+](=O)[O-])cc2)cc1)C(=O)O | 0.897 |
| CC(C)[C@H](NS(=O)(=O)c1ccc(-c2ccc(F)cc2)cc1)C(=O)O | 0.918 |
| COC(=O)[C@@H](NS(=O)(=O)c1ccc(-c2ccc(OC)cc2)cc1)C(C)C | 0.935 |
| COC(=O)[C@@H](NS(=O)(=O)c1ccc(-c2cccc(F)c2)cc1)C(C)C | 0.919 |
| COC(=O)[C@@H](NS(=O)(=O)c1ccc(-c2ccc([N+](=O)[O-])cc2)cc1)C(C)C | 0.883 |
| COC(=O)[C@@H](NS(=O)(=O)c1ccc(-c2ccccc2OC)cc1)C(C)C | 0.942 |
| COC(=O)[C@@H](NS(=O)(=O)c1ccc(-c2ccc(F)cc2)cc1)C(C)C | 0.91 |
| COC(=O)[C@@H](NS(=O)(=O)c1ccc(-c2cccc(OC)c2)cc1)C(C)C | 0.939 |
| COc1ccc(-c2ccc(S(=O)(=O)N[C@H](C(=O)O)C(C)C)cc2)cc1 | 0.938 |
| COC(=O)[C@@H](NS(=O)(=O)c1ccc(-c2ccccc2F)cc1)C(C)C | 0.922 |
